Source of measurements: patent US4321381A

System: spontaneously hypertensive male rats, strain MHS
assay_name: Anti-hypertensive activity in the spontaneously hypertensive rat (MHS): blood pressure and heart rate at the tail
Format: in vivo
conditions_used: 5 mg/kg os, first day, 1 hr after dose
Change in HR, 1 hr after dose, first day by entry:

Reference set, count: 5
compound: CCNC(=O)C(C#N)C[C@@H]1C[C@@H]2c3cccc4[nH]cc(c34)C[C@H]2N(C)C1 (stereo partly drawn) [Example 1138]
Change in HR, 1 hr after dose, first day: -8 b/min

compound: CN1C[C@H](CC(C#N)C(N)=O)C[C@@H]2c3cccc4[nH]c(Br)c(c34)C[C@H]21 (stereo partly drawn) [Example 1139]
Change in HR, 1 hr after dose, first day: +28 b/min

compound: CN1C[C@H](CC(C#N)C(=O)NCc2ccccc2)C[C@@H]2c3cccc4[nH]cc(c34)C[C@H]21 (stereo partly drawn) [Example 1131]
Change in HR, 1 hr after dose, first day: -18 b/min

compound: NNc1nncc2ccccc12 [Hydralazine, hydralazine, reference compound]
Change in HR, 1 hr after dose, first day: -45 b/min

compound: CN1C[C@H](CC(C#N)C(N)=O)C[C@@H]2c3cccc4[nH]cc(c34)C[C@H]21 (stereo partly drawn) [355/1057]
Change in HR, 1 hr after dose, first day: +5 b/min

As a next step, examine the compound that follows.
Query: Report Change in HR, 1 hr after dose, first day for CN1C[C@H](CC(C#N)C(=O)N2CCCC2)C[C@@H]2c3cccc4[nH]cc(c34)C[C@H]21 (stereo partly drawn) [Example 1133] please.
Response: 0 b/min

###

Test system: spontaneously hypertensive male rats, strain MHS
assay_name: Anti-hypertensive activity in the spontaneously hypertensive rat (MHS): blood pressure and heart rate at the tail
Type: in vivo
conditions_used: 5 mg/kg os, fourth day, 1 hr after dose
// boundary case: Change in BP, 1 hr after dose, fourth day equal to -20 mm Hg maps to criterion not met; strictly smaller maps to criterion met

Here's what some known entries look like.
compound: CCNC(=O)C(C#N)CC1CC2c3cccc4[nH]cc(c34)CC2N(CC2CC2)C1 (stereo not drawn)
experimental_target: spontaneously hypertensive male rats, strain MHS
group: criterion met
--
compound: C=CCN1C[C@H](CC(C#N)C(N)=O)C[C@@H]2c3cccc4[nH]cc(c34)C[C@H]21 (stereo partly drawn)
experimental_target: spontaneously hypertensive male rats, strain MHS
group: criterion met
--
compound: CCCN1C[C@H](CC(C#N)C(N)=O)C[C@@H]2c3cccc4[nH]cc(c34)C[C@H]21 (stereo partly drawn)
experimental_target: spontaneously hypertensive male rats, strain MHS
group: criterion met
--
compound: CN1C[C@H](CC(C#N)C(N)=O)C[C@@H]2c3cccc4[nH]c(Br)c(c34)C[C@H]21 (stereo partly drawn)
experimental_target: spontaneously hypertensive male rats, strain MHS
group: criterion not met
--
compound: CCCN1C[C@H](CC(C#N)C(=O)NCC)C[C@@H]2c3cccc4[nH]cc(c34)C[C@H]21 (stereo partly drawn)
experimental_target: spontaneously hypertensive male rats, strain MHS
group: criterion met

Okay, next one:
Query: Lab log: compare recorded Change in BP, 1 hr after dose, fourth day with -20 mm Hg; is it strictly lower for CN1C[C@H](CC(C#N)C(=O)NCc2ccccc2)C[C@@H]2c3cccc4[nH]cc(c34)C[C@H]21 (stereo partly drawn) ?
Response: criterion not met
